Molecular target: Sterol O-acyltransferase 1 (Mus musculus)
Sequence (Q61263 whole entry): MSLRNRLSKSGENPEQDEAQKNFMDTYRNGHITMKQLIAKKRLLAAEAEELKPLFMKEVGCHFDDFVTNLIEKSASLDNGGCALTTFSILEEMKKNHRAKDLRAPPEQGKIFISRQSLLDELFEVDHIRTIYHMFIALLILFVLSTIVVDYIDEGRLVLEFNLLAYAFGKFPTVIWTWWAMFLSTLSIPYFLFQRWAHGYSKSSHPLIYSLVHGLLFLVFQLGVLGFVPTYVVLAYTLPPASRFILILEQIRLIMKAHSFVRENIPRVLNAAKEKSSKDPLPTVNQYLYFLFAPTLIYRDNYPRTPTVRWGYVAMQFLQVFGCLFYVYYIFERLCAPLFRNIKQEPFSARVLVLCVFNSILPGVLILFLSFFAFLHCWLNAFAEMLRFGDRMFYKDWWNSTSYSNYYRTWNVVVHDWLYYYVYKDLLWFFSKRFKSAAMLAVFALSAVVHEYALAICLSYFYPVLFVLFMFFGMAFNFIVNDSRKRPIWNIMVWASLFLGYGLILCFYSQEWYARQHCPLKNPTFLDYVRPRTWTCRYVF
Assay: Inhibition of acyl coenzyme A:cholesterol acyltransferase (ACAT) in J774 Macrophage cell culture by using J774 assay.
Assay type: cell-based
pIC50: −log10 of the molar value.
# cutoff 5 applies to pIC50; >= gives yes (1), < gives no (0)

> print(dat)
                                   compound                                    target  class.label
1  CCCCCCCN(CCCCCSc1ccccn1)C(=O)Nc1ccc(F)cc1F  Sterol O-acyltransferase 1 (Mus musculus)      yes (1)
2  CCCCCCCN(CCCCCSc1nc(N)c2c[nH]nc2n1)C(=O)Nc1ccc(F)cc1F  Sterol O-acyltransferase 1 (Mus musculus)       no (0)
3  CCCCCCCN(CCCCCSc1ncc[nH]1)C(=O)Nc1ccc(F)cc1F  Sterol O-acyltransferase 1 (Mus musculus)      yes (1)
4  CCCCCCN(CCCCCSc1nc2cc(C)ccc2[nH]1)C(=O)Nc1ccc(F)cc1F  Sterol O-acyltransferase 1 (Mus musculus)      yes (1)
5  CCCCCCCN(CCCCCOC1=NC(S)=NC1(c1ccccc1)c1ccccc1)C(=O)NC(C)C  Sterol O-acyltransferase 1 (Mus musculus)      yes (1)
6  CCCCCCN(CCOCCSc1nc2c[nH]cnc-2n1)C(=O)NC(C)C  Sterol O-acyltransferase 1 (Mus musculus)       no (0)
7  CCCCCCCN(CCCCCSc1nc(-c2ccccc2)c(-c2ccccc2)n1C)C(=O)Nc1ccc(F)cc1F  Sterol O-acyltransferase 1 (Mus musculus)      yes (1)
8  CCCCCCCN(CCCCCSC1N=C(c2ccccc2)c2ccccc2NC1=O)C(=O)Nc1ccc(F)cc1F (stereo not given)  Sterol O-acyltransferase 1 (Mus musculus)      yes (1)
9  CCCCCCN(CCCCCSc1nc2ccc[nH]c-2n1)C(=O)Nc1ccc(F)cc1F  Sterol O-acyltransferase 1 (Mus musculus)      yes (1)

* * *

test: Partition coefficient (logP); assay type: physicochemical; conditions: octanol/water
measure-name: logP

> print(dat)
                             molecule.smiles  measure.name  recorded.result
 1  CCCCCCN(CCCCCSc1nc2cc([N+](=O)[O-])ccc2[nH]1)C(=O)Nc1ccc(F)cc1F          logP             7.19
 2  CCCCCCN(CCCCCSc1nc2ccccc2[nH]1)C(=O)Nc1ccc(F)cc1F          logP             7.29
 3  CCCCCCN(CCCCCSc1nc2ccccc2o1)C(=O)Nc1ccc(F)cc1F          logP             7.18
 4  CCCCCCN(CCCCCSc1nc2c([nH]1)CCCC2)C(=O)Nc1ccc(F)cc1F          logP             6.81
 5  CCCCCCCN(CCCCCSc1nnc(-c2ccccc2)n1-c1ccccc1)C(=O)Nc1ccc(F)cc1F          logP             8.64
 6  CCCCCCCN(CCCCCSc1nc(N)c2c[nH]nc2n1)C(=O)NC(C)C          logP             5.14
 7  CCCCCCN(CCCCCSc1nc2cc(OCC)ccc2s1)C(=O)Nc1ccc(F)cc1F          logP             8.46
 8  CCCCCCCN(CCCCCSc1[nH]cnc2nncc1-2)C(=O)Nc1ccc(F)cc1F          logP              5.6
 9  CCCCCCCN(CCCCCSc1n[nH]c(-c2ccccc2)n1)C(=O)Nc1ccc(F)cc1F          logP             6.78
10  CCCCCCCN(CCCCCSc1[nH]cnc2ncnc1-2)C(=O)NC(C)C          logP             4.72
